This collection of values is drawn from patent US20180185504A1.

# TARGET_OR_SYSTEM: T1, hPRLR.mFc (soluble dimeric human PRLR) (human)
# T1 construct: dimeric PRLR construct
# T1 chain: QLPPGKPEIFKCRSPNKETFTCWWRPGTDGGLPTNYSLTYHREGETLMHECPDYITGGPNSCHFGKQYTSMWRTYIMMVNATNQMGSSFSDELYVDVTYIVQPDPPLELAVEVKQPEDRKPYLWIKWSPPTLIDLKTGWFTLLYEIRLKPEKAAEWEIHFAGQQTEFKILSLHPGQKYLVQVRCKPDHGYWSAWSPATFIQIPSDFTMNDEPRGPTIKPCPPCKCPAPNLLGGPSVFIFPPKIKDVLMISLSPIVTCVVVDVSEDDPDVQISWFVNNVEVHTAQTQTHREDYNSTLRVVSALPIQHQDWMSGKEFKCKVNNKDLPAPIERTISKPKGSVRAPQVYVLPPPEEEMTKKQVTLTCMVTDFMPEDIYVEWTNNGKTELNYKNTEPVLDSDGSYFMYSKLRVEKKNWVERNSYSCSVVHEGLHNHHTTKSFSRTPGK
# EXPERIMENTAL_DETAILS: SPR Biacore, 25 C, mAb capture
Listed next: entries and their corresponding pKd.
Keep in mind that pKd stands for -log10 of concentration in molar terms.

Reference set, count: 4
{"BINDER": "H1H6803P (antibody, human IgG1, V domains shown, Human IgG1 Fc (H1H)) VH: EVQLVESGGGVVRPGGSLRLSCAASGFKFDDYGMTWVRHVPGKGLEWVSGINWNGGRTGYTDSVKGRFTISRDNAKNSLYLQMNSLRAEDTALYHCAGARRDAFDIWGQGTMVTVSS VL: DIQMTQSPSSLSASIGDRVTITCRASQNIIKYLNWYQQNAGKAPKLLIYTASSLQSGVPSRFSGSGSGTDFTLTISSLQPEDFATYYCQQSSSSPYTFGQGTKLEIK", "pKd": 9.22}
{"BINDER": "H1H6801P (antibody, human IgG1, V domains shown, Human IgG1 Fc (H1H)) VH: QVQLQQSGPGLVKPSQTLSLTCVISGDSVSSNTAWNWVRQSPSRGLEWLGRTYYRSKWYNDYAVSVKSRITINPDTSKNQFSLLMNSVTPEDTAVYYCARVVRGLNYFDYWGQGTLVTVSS VL: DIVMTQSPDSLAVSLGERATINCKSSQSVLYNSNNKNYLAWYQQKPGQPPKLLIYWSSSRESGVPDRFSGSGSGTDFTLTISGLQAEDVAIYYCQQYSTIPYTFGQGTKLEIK", "pKd": 9.79}
{"BINDER": "H1H6765P (antibody, human IgG1, V domains shown, Human IgG1 Fc (H1H)) VH: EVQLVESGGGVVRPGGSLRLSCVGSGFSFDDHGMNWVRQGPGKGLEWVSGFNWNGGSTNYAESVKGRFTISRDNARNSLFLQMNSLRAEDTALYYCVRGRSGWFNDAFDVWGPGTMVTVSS VL: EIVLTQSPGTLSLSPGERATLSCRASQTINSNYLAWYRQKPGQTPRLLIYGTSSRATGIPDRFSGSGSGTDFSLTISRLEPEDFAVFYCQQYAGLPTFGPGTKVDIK", "pKd": 10.41}
{"BINDER": "H1H6959N2 (antibody, human IgG1, V domains shown, Tested with human IgG1 Fc (H1H); also called H2M6959N2) VH: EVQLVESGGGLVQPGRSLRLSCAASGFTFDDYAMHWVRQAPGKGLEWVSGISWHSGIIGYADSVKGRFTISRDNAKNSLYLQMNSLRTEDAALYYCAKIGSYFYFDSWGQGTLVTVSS VL: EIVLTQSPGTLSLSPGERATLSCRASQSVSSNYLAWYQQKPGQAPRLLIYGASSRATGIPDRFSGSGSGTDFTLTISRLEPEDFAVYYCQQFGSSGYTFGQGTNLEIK", "pKd": 8.84}

In the following, a different binder is considered.
Lookup: Item under review: H1H6785P (antibody, human IgG1, V domains shown, Human IgG1 Fc (H1H)) VH: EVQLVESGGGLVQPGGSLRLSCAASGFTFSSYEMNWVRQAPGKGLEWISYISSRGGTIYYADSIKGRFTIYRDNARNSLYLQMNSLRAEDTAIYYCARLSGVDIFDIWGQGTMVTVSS VL: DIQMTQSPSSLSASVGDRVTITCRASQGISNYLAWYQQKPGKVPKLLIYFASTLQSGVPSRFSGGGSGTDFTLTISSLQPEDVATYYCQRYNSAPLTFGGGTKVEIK . Reported pKd?
Found: 9.64
